conditions: buffer; pH 7.4; 200.0 µM

{"molecule": "O=S(=O)(c1ccc(Cl)cc1)N1CCN2CCCC2C1 (centres undefined)", "solubility kinetic": "> 45.1 µg/mL"}
{"molecule": "O=C(N/N=C/c1ccco1)c1ccc2nc[nH]c2c1", "solubility kinetic": "> 38.1 µg/mL"}
{"molecule": "Cc1ccc(O)c(NC(=O)c2ccc3c(c2)C(=O)N(CC(C)C)C3=O)c1", "solubility kinetic": "< 0.4 µg/mL"}
{"molecule": "O=C1CCc2cc(S(=O)(=O)Nc3ccccc3)cc3c2N1CC3", "solubility kinetic": "> 49.3 µg/mL"}
{"molecule": "CCC(C)[C@H](NC(=O)NCCC1=CCCCC1)C(=O)OC (some centres undefined)", "solubility kinetic": "> 44.5 µg/mL"}
{"molecule": "CCOC(=O)c1cn2ccc(C)cc2n1", "solubility kinetic": "> 30.6 µg/mL"}
{"molecule": "CC(=NCCN1CCCCC1)c1c(O)n(-c2ccccc2)c(=O)[nH]c1=O", "solubility kinetic": "> 53.5 µg/mL"}
{"molecule": "O=C(CN1CCCCCCC1)Nc1cccc(Cl)c1Cl", "solubility kinetic": "< 0.3 µg/mL"}
{"molecule": "CCN(c1cccc(C)c1)S(=O)(=O)c1ccc(OC)c([N+](=O)[O-])c1", "solubility kinetic": "< 0.4 µg/mL"}
